# ASSAYED TARGET: 5-hydroxytryptamine receptor 6 (Homo sapiens)
# Sequence (P50406 whole entry): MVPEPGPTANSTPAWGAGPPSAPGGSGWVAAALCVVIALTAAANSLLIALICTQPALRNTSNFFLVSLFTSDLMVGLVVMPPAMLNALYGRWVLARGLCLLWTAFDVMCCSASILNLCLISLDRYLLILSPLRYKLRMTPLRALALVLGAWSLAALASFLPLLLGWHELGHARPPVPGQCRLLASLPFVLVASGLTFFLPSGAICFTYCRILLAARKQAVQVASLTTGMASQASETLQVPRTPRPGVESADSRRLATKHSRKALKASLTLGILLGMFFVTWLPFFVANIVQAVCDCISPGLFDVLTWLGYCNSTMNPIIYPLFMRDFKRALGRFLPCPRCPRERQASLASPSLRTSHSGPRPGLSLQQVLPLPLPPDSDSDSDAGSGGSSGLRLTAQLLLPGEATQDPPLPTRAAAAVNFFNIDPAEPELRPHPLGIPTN
# PROTOCOL: Antagonist activity at human recombinant 5HT6 receptor expressed in HeLa cells assessed as inhibition of 5HT-induced intracellular calcium level at 10 uM incubated for 15 mins prior to 5HT-induction measured after 1 hr by fluo-4-AM-based fluorimetry
# Type: functional, cell-based
Binned inhibition; ranges: bottom range = under 20%, center range = from 20% up to 50%, top range = 50% and over

STRUCTURE AS SMILES	CATEGORY
CN(C)/C=N/c1nsc2ccc(NS(=O)(=O)c3c(F)cccc3F)cc12	bottom range
CN(C)/C=N/c1nsc2ccc(NS(=O)(=O)c3cccc4ccccc34)cc12	center range
CN(C)/C=N/c1nsc2ccc(NS(=O)(=O)c3ccc([N+](=O)[O-])cc3)cc12	bottom range
CN(C)/C=N/c1nc2cc(NS(=O)(=O)c3ccc4ccccc4c3)ccc2s1	top range
CN(C)/C=N/c1nsc2ccc(NS(=O)(=O)c3ccc4ccccc4c3)cc12	top range
CN(C)/C=N/c1nc2cc(NS(=O)(=O)c3cccc4ccccc34)ccc2s1	center range
Cc1ccc(S(=O)(=O)Nc2ccc3snc(/N=C/N(C)C)c3c2)cc1	top range
CN(C)/C=N/c1nsc2ccc(NS(=O)(=O)c3ccccc3)cc12	center range
CN(C)/C=N/c1nsc2ccc(NS(=O)(=O)c3cccc4cccnc34)cc12	bottom range
CC(C)c1ccc(S(=O)(=O)Nc2ccc3snc(/N=C/N(C)C)c3c2)cc1	center range
